# test_target: UniProtKB P10275
# Sequence (P10275 whole entry): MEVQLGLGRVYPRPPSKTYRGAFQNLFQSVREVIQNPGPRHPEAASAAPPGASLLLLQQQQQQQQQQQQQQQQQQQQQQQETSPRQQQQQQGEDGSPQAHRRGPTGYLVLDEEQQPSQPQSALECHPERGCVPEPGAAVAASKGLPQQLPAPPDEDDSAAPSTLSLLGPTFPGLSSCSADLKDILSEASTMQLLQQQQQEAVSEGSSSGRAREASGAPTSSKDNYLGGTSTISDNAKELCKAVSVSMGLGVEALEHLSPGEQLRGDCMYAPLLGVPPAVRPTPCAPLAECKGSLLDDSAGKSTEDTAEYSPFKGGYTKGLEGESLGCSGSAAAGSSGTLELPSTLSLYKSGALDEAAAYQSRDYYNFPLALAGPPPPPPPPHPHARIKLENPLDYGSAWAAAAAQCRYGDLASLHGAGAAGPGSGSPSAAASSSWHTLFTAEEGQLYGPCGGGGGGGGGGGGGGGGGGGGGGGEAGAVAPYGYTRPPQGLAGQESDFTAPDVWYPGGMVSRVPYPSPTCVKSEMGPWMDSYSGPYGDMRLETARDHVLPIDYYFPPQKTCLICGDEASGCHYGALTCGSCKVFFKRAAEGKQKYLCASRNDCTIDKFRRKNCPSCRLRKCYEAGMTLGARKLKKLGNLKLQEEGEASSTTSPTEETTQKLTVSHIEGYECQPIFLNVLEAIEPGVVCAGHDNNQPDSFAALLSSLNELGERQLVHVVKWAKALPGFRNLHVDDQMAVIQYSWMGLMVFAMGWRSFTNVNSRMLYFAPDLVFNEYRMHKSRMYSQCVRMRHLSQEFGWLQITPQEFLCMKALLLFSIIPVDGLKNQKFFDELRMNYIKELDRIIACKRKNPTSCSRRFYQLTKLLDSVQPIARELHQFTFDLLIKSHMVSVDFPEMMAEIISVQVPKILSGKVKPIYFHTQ
# protocol: Inhibition of [3H]mibolerone binding to human Androgen receptor of PC3/AR Cell Lysate
Entries annotated with measured IC50

{"compound": "CCCC(=O)Oc1ccc(COCC#CCN2C(=O)N(c3ccc(C#N)c(C(F)(F)F)c3)C(=O)C2(C)C)cc1C(=O)NCN[C@H]1CC(OC2C[C@](O)(C(=O)CO)Cc3c(O)c4c(c(O)c32)C(=O)c2c(OC)cccc2C4=O)O[C@@H](C)[C@H]1O (some centres undefined)", "uom": "nM", "IC50": 63}
{"compound": "CC1(C)C(=O)N(c2ccc(C#N)c(C(F)(F)F)c2)C(=O)N1OCC#CCCc1ccc(O)c(C(N)=O)c1", "uom": "nM", "IC50": 49}
{"compound": "COc1cccc2c1C(=O)c1c(O)c3c(c(O)c1C2=O)C[C@@](O)(C(=O)CO)CC3OC1C[C@H](NCNC(=O)c2cc(COCC#CCN3C(=O)N(c4ccc(C#N)c(C(F)(F)F)c4)C(=O)C3(C)C)ccc2O)[C@H](O)[C@H](C)O1 (some centres undefined)", "uom": "nM", "IC50": 90}
{"compound": "CC1(C)C(=O)N(c2ccc(C#N)c(C(F)(F)F)c2)C(=O)N1OCCOCCOCCCc1ccc(O)c(C(N)=O)c1", "uom": "nM", "IC50": 332}
